Data origin, for the record: patent US12018305B2

Experiment: Toxicokinetic study, 14-day repeated intraperitoneal administration in Sprague-Dawley rats
Format: in vivo
Conditions: male, Sprague-Dawley, rat, in vivo, ip, 5 mg/kg/day, Tmax
READOUT TYPE: Tmax (min)

SUBSTANCE SMILES: CO[C@@H]1C[C@@H](C[C@H]2CC[C@H](C)[C@H]([C@@H](C)C(=O)O)O2)O[C@]2(O[C@](C)([C@H]3CC[C@@](C)([C@@H]4O[C@@H]([C@H]5O[C@@](O)(CO)[C@H](C)C[C@@H]5C)C[C@@H]4C)O3)C[C@H]2C)[C@@H]1C
READOUT TYPE: Tmax
DISPLAY UNIT: min
ASSAY VALUE: 19.8

###

Assay: Toxicokinetic study, 14-day repeated intraperitoneal administration in Sprague-Dawley rats
Assay type: in vivo
Settings: male, Sprague-Dawley, rat, in vivo, ip, 1.5 mg/kg/day, Cmax
READOUT TYPE: Cmax at 14 day (ng/mL)

COMPOUND: CO[C@@H]1C[C@@H](C[C@H]2CC[C@H](C)[C@H]([C@@H](C)C(=O)O)O2)O[C@]2(O[C@](C)([C@H]3CC[C@@](C)([C@@H]4O[C@@H]([C@H]5O[C@@](O)(CO)[C@H](C)C[C@@H]5C)C[C@@H]4C)O3)C[C@H]2C)[C@@H]1C [nigericin]
ASSAY VALUE: 815

###

Test: Toxicokinetic study, 14-day repeated intraperitoneal administration in Sprague-Dawley rats
Format: in vivo
Conditions: female, Sprague-Dawley, rat, in vivo, ip, 1.5 mg/kg/day, AUClast
READOUT TYPE: AUC(0-t) (ng·h/mL)

SUBSTANCE SMILES: CO[C@@H]1C[C@@H](C[C@H]2CC[C@H](C)[C@H]([C@@H](C)C(=O)O)O2)O[C@]2(O[C@](C)([C@H]3CC[C@@](C)([C@@H]4O[C@@H]([C@H]5O[C@@](O)(CO)[C@H](C)C[C@@H]5C)C[C@@H]4C)O3)C[C@H]2C)[C@@H]1C
ASSAY VALUE: 3120

###

Assay: Toxicokinetic study, 14-day repeated intraperitoneal administration in Sprague-Dawley rats
Type: in vivo
Settings: male, Sprague-Dawley, rat, in vivo, ip, 1.5 mg/kg/day, Tmax

SUBSTANCE SMILES: CO[C@@H]1C[C@@H](C[C@H]2CC[C@H](C)[C@H]([C@@H](C)C(=O)O)O2)O[C@]2(O[C@](C)([C@H]3CC[C@@](C)([C@@H]4O[C@@H]([C@H]5O[C@@](O)(CO)[C@H](C)C[C@@H]5C)C[C@@H]4C)O3)C[C@H]2C)[C@@H]1C
Tmax at 14 day / min: 4.8

###

Assay: Toxicokinetic study, 14-day repeated intraperitoneal administration in Sprague-Dawley rats
Format: in vivo
Conditions: male, Sprague-Dawley, rat, in vivo, ip, 0.5 mg/kg/day, Cmax

SUBSTANCE SMILES: CO[C@@H]1C[C@@H](C[C@H]2CC[C@H](C)[C@H]([C@@H](C)C(=O)O)O2)O[C@]2(O[C@](C)([C@H]3CC[C@@](C)([C@@H]4O[C@@H]([C@H]5O[C@@](O)(CO)[C@H](C)C[C@@H]5C)C[C@@H]4C)O3)C[C@H]2C)[C@@H]1C
DISPLAY UNIT: ng/mL
Cmax: 403

###

Test: in vivo
Parameters: species or system Sprague Dawley rats
Conditions: male, Sprague Dawley, rat, iv, 2 mg/kg

COMPOUND: CO[C@@H]1C[C@@H](C[C@H]2CC[C@H](C)[C@H]([C@@H](C)C(=O)O)O2)O[C@]2(O[C@](C)([C@H]3CC[C@@](C)([C@@H]4O[C@@H]([C@H]5O[C@@](O)(CO)[C@H](C)C[C@@H]5C)C[C@@H]4C)O3)C[C@H]2C)[C@@H]1C [nigericin]
clearance: 15.1 mL/min/kg
